Cited source for all entries: ChEMBL document CHEMBL1145530

test system: Plasmodium falciparum; assay: Anti-infective activity against Plasmodium falciparum W2 in erythrocytes; type: functional, organism-based
Note to self: IC50 under 0.7 µg/mL means 1 (yes), ties and anything higher get 0 (no).

{"compound": "[I-].c1ccc(CCCCC[n+]2cccc3sc4ccccc4c32)cc1", "answerLabel": "1 (yes)"}
{"compound": "C[n+]1cccc2sc3ccc([N+](=O)[O-])cc3c21.[I-]", "answerLabel": "1 (yes)"}
{"compound": "C[n+]1c2ccc(C(=O)O)cc2cc2sc3ccccc3c21.[I-]", "answerLabel": "0 (no)"}
{"compound": "C[n+]1c2ccccc2cc2[nH]c3ccccc3c21.[I-] [CRYPTOLEPTINE IODIDE]", "answerLabel": "1 (yes)"}
{"compound": "C[n+]1c2ccccc2cc2oc3ccccc3c21.[I-]", "answerLabel": "1 (yes)"}
{"compound": "CN(C)c1ccc2sc3ccc[n+](C)c3c2c1", "answerLabel": "1 (yes)"}

Record COc1ccc2c(c1)cc1sc3ccccc3c1[n+]2C.[I-] : is its IC50 strictly below 0.7 µg/mL? 0 (no)

Record C[n+]1c2ccc(Cl)cc2cc2sc3ccccc3c21.[I-] : is its IC50 strictly below 0.7 µg/mL? 0 (no)

Record C[n+]1c2ccccc2cc2sc3ccccc3c21.O=S(=O)([O-])C(F)(F)F : is its IC50 strictly below 0.7 µg/mL? 1 (yes)

Record C[n+]1cccc2sc3ccccc3c21.[I-] : is its IC50 strictly below 0.7 µg/mL? 0 (no)

Record C[C@@H]1CC[C@H]2[C@@H](C)C(=O)O[C@@H]3O[C@@]4(C)CC[C@@H]1[C@]32OO4 : is its IC50 strictly below 0.7 µg/mL? 1 (yes)

Record C[n+]1c2ccccc2cc2sc3ccccc3c21.[I-] : is its IC50 strictly below 0.7 µg/mL? 0 (no)
